Source listed as paper PMC11851430.

Molecular target: ABL1 (Homo sapiens)
Construct: endogenous in cells; host or cells: Jurkat (Clone E6.1) cell lysate
Sequence (P00519 whole entry): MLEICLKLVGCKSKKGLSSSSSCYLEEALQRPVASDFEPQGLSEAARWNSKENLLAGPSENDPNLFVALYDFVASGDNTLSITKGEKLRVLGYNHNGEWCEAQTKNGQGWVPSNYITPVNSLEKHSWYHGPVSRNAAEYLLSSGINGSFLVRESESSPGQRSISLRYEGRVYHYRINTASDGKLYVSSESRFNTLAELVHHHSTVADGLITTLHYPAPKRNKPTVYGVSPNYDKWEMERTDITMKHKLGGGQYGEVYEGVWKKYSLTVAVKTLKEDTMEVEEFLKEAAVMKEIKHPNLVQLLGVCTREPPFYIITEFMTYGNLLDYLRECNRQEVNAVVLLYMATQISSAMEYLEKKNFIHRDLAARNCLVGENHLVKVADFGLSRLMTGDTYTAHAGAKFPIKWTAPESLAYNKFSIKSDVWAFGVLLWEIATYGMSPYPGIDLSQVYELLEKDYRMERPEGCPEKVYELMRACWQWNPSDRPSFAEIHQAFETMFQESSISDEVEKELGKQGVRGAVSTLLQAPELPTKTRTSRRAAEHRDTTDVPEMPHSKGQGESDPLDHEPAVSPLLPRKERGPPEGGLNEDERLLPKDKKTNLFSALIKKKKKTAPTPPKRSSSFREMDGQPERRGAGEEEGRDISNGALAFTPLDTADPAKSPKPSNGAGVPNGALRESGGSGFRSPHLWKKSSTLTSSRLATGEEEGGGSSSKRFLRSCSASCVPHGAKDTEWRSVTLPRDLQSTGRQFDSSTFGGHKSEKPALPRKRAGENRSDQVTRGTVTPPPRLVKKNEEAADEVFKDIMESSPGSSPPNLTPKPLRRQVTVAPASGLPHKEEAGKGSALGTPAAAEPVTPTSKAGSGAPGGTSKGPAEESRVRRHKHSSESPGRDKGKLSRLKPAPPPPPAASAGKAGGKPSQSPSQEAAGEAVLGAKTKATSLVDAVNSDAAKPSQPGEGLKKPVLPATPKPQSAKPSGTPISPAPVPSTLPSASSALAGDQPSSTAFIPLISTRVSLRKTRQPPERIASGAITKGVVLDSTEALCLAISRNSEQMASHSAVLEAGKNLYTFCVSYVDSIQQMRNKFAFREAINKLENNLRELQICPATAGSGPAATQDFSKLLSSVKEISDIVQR
Assay: Kinobeads selectivity profiling
Type: binding
Conditions: Jurkat lysate, dose series given in nM, read-out: Kd (apparent dissociation constant, corrected for protein depletion)
property_name: Kd (nM)
Report the figure in nM without appending any unit label.

- compound: "NC(=O)c1ccccc1Nc1nc(Nc2ccc(N3CCNCC3)cc2)ncc1Cl [compound 6]"
  Kd [nM]: 420
- compound: "CC(C)(C)OC(=O)NCCCOCCOCCOCCCNC(=O)c1cc(Nc2cc(C3CC3)[nH]n2)nc(Nc2ccc(CC#N)cc2)n1 [5-L]"
  Kd [nM]: 4950
- compound: "CC(C)(C)OC(=O)N1CCN(c2cc(Nc3cc(C4CC4)[nH]n3)nc(Nc3ccc(CC#N)cc3)n2)CC1 [compound 4]"
  Kd [nM]: 2970

Now look at this entry.
Kd measured on CC(C)(C)OC(=O)NCCOCCOCCOCCOCCC(=O)N1CCN(c2cc(Nc3cc(C4CC4)[nH]n3)nc(Nc3ccc(CC#N)cc3)n2)CC1 [4-L] = 2200

====

Each record here notes measured log2FC (compound/DMSO).
Target: kinase protein levels in MCF-7 cells (Homo sapiens)
Construct: endogenous in cells; host or cells: MCF-7
Experiment: TMT-labeled quantitative proteomics
Format: cell-based
Conditions: protein LINC00493; MCF7; 2.5 µM; set3
Could you respond with only the numeric value?

- test_smiles: "CC(=O)N[C@H](C(=O)N1C[C@H](O)C[C@H]1C(=O)NCc1ccc(-c2scnc2C)cc1OCCOCCOCCOCCOCCC(=O)N1CCN(c2ccc(Nc3ncc(Cl)c(Nc4ccccc4C(N)=O)n3)cc2)CC1)C(C)(C)C"
  log2FC (compound/DMSO): 0.04253
- test_smiles: "CCOC(=O)c1cc(Nc2cc(C3CC3)[nH]n2)nc(Nc2ccc(CC#N)cc2)n1"
  log2FC (compound/DMSO): -0.4501
- test_smiles: "Cc1ncsc1-c1ccc(CNC(=O)[C@@H]2C[C@@H](O)CN2C(=O)[C@@H](NC(=O)CCOCCOCCOCCN2CCN(c3cc(Nc4cc(C5CC5)[nH]n4)nc(Nc4ccc(CC#N)cc4)n3)CC2)C(C)(C)C)cc1"
  log2FC (compound/DMSO): 0.3781

Now look at this entry.
log2FC (compound/DMSO) measured on Cc1ncsc1-c1ccc(CNC(=O)[C@@H]2C[C@@H](O)CN2C(=O)[C@@H](NC(=O)CCOCCOCCOCCOCCN2CCN(c3ccc(Nc4ncc(Cl)c(Nc5ccccc5C(N)=O)n4)cc3)CC2)C(C)(C)C)cc1 = -0.4049

====

Each record here notes measured IC50.
Molecular target: UniProtKB Q2M2I8
Sequence (Q2M2I8 whole entry): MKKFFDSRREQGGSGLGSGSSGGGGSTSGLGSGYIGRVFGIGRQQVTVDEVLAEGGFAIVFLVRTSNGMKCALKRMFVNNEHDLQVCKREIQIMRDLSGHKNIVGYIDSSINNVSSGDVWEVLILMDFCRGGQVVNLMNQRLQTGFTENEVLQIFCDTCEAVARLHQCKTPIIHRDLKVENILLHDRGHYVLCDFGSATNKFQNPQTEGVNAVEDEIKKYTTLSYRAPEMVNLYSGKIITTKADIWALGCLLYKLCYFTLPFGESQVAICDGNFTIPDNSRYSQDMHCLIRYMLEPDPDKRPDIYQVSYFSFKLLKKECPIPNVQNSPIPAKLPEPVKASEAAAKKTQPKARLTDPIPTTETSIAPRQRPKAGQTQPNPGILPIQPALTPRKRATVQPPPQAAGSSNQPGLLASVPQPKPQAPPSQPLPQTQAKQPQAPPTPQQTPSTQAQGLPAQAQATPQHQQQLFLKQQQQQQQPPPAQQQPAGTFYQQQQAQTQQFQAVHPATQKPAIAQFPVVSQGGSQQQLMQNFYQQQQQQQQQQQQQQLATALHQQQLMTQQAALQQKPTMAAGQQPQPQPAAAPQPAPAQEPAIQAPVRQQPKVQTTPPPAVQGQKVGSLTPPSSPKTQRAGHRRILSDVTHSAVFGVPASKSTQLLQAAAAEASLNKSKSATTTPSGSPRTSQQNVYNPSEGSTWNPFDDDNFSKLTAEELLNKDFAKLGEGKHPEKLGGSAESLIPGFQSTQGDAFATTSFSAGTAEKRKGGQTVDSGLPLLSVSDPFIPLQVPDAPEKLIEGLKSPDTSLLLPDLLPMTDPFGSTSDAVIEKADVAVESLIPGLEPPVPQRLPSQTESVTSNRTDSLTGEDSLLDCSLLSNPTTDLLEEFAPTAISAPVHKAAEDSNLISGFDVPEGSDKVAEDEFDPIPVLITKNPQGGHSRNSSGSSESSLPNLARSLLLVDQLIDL
Experiment: NanoBRET target engagement assay, intact and permeabilized cells
Settings: AAK1 intact (IC50±sd)/μM, NanoBRET, intact cells; mean of duplicates; ^a values estimated by extrapolation
Report the figure in µM without appending any unit label.

Known IC50 results, listed for orientation:
- compound: "Cc1ncsc1-c1ccc(CNC(=O)[C@@H]2C[C@@H](O)CN2C(=O)[C@@H](NC(=O)CCCCCCN2CCN(c3cc(Nc4cc(C5CC5)[nH]n4)nc(Nc4ccc(CC#N)cc4)n3)CC2)C(C)(C)C)cc1 [4-c]"
  unit_text: "µM"
  observed_result: 0.443
- compound: "CC(C)(C)OC(=O)N1CCN(c2cc(Nc3cc(C4CC4)[nH]n3)nc(Nc3ccc(CC#N)cc3)n2)CC1 [compound 4]"
  unit_text: "µM"
  observed_result: 0.005

Now look at this entry.
The reported IC50 value, UniProtKB Q2M2I8, for Cc1ncsc1-c1ccc(CNC(=O)[C@@H]2C[C@@H](O)CN2C(=O)[C@@H](NC(=O)CCOCCOCCN2CCN(c3ccc(Nc4ncc(Cl)c(Nc5ccccc5C(N)=O)n4)cc3)CC2)C(C)(C)C)cc1 [6-a] reads 0.088

====

Each record here notes measured log2FC (compound/DMSO).
Target: kinase protein levels in MCF-7 cells (Homo sapiens, UniProt A0A096LP01)
Construct: endogenous in cells; host or cells: MCF-7
Sequence (A0A096LP01 whole entry): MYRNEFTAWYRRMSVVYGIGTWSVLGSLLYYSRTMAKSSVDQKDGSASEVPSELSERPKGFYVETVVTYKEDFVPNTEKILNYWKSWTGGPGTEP
Assay: TMT-labeled quantitative proteomics
Assay type: cell-based
Conditions: protein LINC00493; MCF; 0.25µM; set4
Could you respond with only the numeric value?

Known log2FC (compound/DMSO) results, listed for orientation:
- compound: "CC(=O)N[C@H](C(=O)N1C[C@H](O)C[C@H]1C(=O)NCc1ccc(-c2scnc2C)cc1OCCOCCOCCOCCOCCC(=O)N1CCN(c2ccc(Nc3ncc(Cl)c(Nc4ccccc4C(N)=O)n3)cc2)CC1)C(C)(C)C [6-e]"
  log2FC (compound/DMSO): -0.008166
- compound: "Cc1ncsc1-c1ccc(CNC(=O)[C@@H]2C[C@@H](O)CN2C(=O)[C@@H](NC(=O)CCOCCOCCOCCOCCN2CCN(c3ccc(Nc4ncc(Cl)c(Nc5ccccc5C(N)=O)n4)cc3)CC2)C(C)(C)C)cc1 [6-b]"
  log2FC (compound/DMSO): -0.03906
- compound: "CCOC(=O)c1cc(Nc2cc(C3CC3)[nH]n2)nc(Nc2ccc(CC#N)cc2)n1 [compound 5]"
  log2FC (compound/DMSO): 0.2815

Now look at this entry.
The reported log2FC (compound/DMSO) value, kinase protein levels in MCF-7 cells (Homo sapiens, UniProt A0A096LP01), for Cc1ncsc1-c1ccc(CNC(=O)[C@@H]2C[C@@H](O)CN2C(=O)[C@@H](NC(=O)CCOCCOCCOCCN2CCN(c3cc(Nc4cc(C5CC5)[nH]n4)nc(Nc4ccc(CC#N)cc4)n3)CC2)C(C)(C)C)cc1 [4-a] reads 0.1013

====

Target: kinase protein levels in MCF-7 cells (Homo sapiens, UniProt Q9BTL3)
Construct: endogenous in cells; host or cells: MCF-7
Sequence (Q9BTL3 whole entry): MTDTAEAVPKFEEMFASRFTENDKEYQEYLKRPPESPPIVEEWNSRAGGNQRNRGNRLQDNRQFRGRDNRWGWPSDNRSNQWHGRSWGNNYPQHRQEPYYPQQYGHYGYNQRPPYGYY
Assay: TMT-labeled quantitative proteomics
Format: cell-based
Details: protein FAM103A1; MCF7; 1 µM; set5
property_name: P.Value (compound/DMSO)
Could you respond with only the numeric value?

Known P.Value (compound/DMSO) results, listed for orientation:
- test_smiles: "Cc1ncsc1-c1ccc(CNC(=O)[C@@H]2C[C@@H](O)CN2C(=O)[C@@H](NC(=O)CCCCCCN2CCN(c3cc(Nc4cc(C5CC5)[nH]n4)nc(Nc4ccc(CC#N)cc4)n3)CC2)C(C)(C)C)cc1"
  P.Value (compound/DMSO): 0.9983
- test_smiles: "Cc1ncsc1-c1ccc(CNC(=O)[C@@H]2C[C@@H](O)CN2C(=O)[C@@H](NC(=O)CCCCCCN2CCN(c3ccc(Nc4ncc(Cl)c(Nc5ccccc5C(N)=O)n4)cc3)CC2)C(C)(C)C)cc1"
  P.Value (compound/DMSO): 0.1981
- test_smiles: "Cc1ncsc1-c1ccc(CNC(=O)[C@@H]2C[C@@H](O)CN2C(=O)[C@@H](NC(=O)CCOCCOCCOCCOCCOCCOCCN2CCN(c3cc(Nc4cc(C5CC5)[nH]n4)nc(Nc4ccc(CC#N)cc4)n3)CC2)C(C)(C)C)cc1"
  P.Value (compound/DMSO): 0.9701

Now look at this entry.
P.Value (compound/DMSO) measured on Cc1ncsc1-c1ccc(CNC(=O)[C@@H]2C[C@@H](O)CN2C(=O)[C@@H](NC(=O)CCOCCOCCN2CCN(c3ccc(Nc4ncc(Cl)c(Nc5ccccc5C(N)=O)n4)cc3)CC2)C(C)(C)C)cc1 = 0.2865

====

Target: kinase protein levels in MCF-7 cells (Homo sapiens)
Construct: endogenous in cells; host or cells: MCF-7
Test: TMT-labeled quantitative proteomics
Type: cell-based
Conditions: protein LINC00493; MCF7; 1 µM; set5
property_name: P.Value (compound/DMSO)
Could you respond with only the numeric value?

Known P.Value (compound/DMSO) results, listed for orientation:
- test_smiles: "Cc1ncsc1-c1ccc(CNC(=O)[C@@H]2C[C@@H](O)CN2C(=O)[C@@H](NC(=O)CCOCCOCCOCCOCCOCCOCCN2CCN(c3cc(Nc4cc(C5CC5)[nH]n4)nc(Nc4ccc(CC#N)cc4)n3)CC2)C(C)(C)C)cc1"
  target_desc: "kinase protein levels in MCF-7 cells (Homo sapiens)"
  observed_result: 0.7132
- test_smiles: "Cc1ncsc1-c1ccc(CNC(=O)[C@@H]2C[C@@H](O)CN2C(=O)[C@@H](NC(=O)CCCCCCN2CCN(c3ccc(Nc4ncc(Cl)c(Nc5ccccc5C(N)=O)n4)cc3)CC2)C(C)(C)C)cc1"
  target_desc: "kinase protein levels in MCF-7 cells (Homo sapiens)"
  observed_result: 0.0001847
- test_smiles: "Cc1ncsc1-c1ccc(CNC(=O)[C@@H]2C[C@@H](O)CN2C(=O)[C@@H](NC(=O)CCOCCOCCN2CCN(c3ccc(Nc4ncc(Cl)c(Nc5ccccc5C(N)=O)n4)cc3)CC2)C(C)(C)C)cc1"
  target_desc: "kinase protein levels in MCF-7 cells (Homo sapiens)"
  observed_result: 0.02321

Now look at this entry.
P.Value (compound/DMSO) measured on Cc1ncsc1-c1ccc(CNC(=O)[C@@H]2C[C@@H](O)CN2C(=O)[C@@H](NC(=O)CCCCCCN2CCN(c3cc(Nc4cc(C5CC5)[nH]n4)nc(Nc4ccc(CC#N)cc4)n3)CC2)C(C)(C)C)cc1 = 0.06841
